Each recorded value in this set is attributed to ChEMBL document CHEMBL1201862.

System: HCT-116
Assay: NCI tumour cell line growth inhibition, 48 h
The source made the active and inactive calls. Cut-off read from the data, not from the text of the source: active = GI50 up to about 1.1 µM and inactive = higher.
Below, each entry is listed alongside its reported GI50.

Some solved cases for reference:
Asked: Reported GI50 for N#Cc1c2c(c(Nc3ccc(F)cc3)n3c1nc1ccccc13)CCC2 : what is it?
Given back: 1.76 µM (inactive)

Asked: Would you kindly repeat that for O=C1c2ccoc2C(=O)c2oc(=O)ccc21 ?
Given back: 5.31 µM (inactive)

--- query ---
Asked: Reported GI50 for C/C(=C/CC[C@](C)(OC1OC(CO)C(O)C(O)C1OC1OC(C)C(O)C(O)C1O)[C@H]1CC[C@]2(C)[C@@H]1CC[C@@H]1[C@@]3(C)CC[C@H](O)C(C)(C)[C@@H]3C[C@H](O)[C@]12C)CO (stereo partly drawn) : what is it?
Given back: > 100 µM (inactive)

###

Below, each entry is listed alongside its reported GI50.
Test system: HL-60
Test: NCI tumour cell line growth inhibition, 48 h
Active and inactive are the calls of the source. Cut-off read from the data, not from the text of the source: active = GI50 up to about 1.1 µM and inactive = higher.

Asked: Reported GI50 for CCOC(=O)c1cc(/C=C/C(C)=C/C(=O)OC)oc1C : what is it?
Given back: > 100 µM (inactive)

Asked: Would you kindly repeat that for C[C@H](CCc1nc(C#N)c(N)o1)[C@H]1CC[C@H]2[C@@H]3[C@@H](O)CC4C[C@@H](O)CC[C@]4(C)[C@H]3C[C@@H](O)[C@]12C (stereo partly specified) ?
Given back: 3.62 µM (inactive)

Asked: Would you kindly repeat that for O=C(OC1C=C=CS(=O)(=O)CC#C/C=C\1)c1cnc2ccccc2n1 (stereo unspecified) ?
Given back: 76.4 µM (inactive)

Asked: Would you kindly repeat that for CCCc1c2c([nH]c(=O)c1C)C(=O)c1[nH]c(=O)c(C)c(CCC)c1C2=O ?
Given back: 3.65 µM (inactive)

Asked: Would you kindly repeat that for CN(C)c1ccc(C(C=C2c3ccccc3Sc3ccccc32)=C(C#N)C#N)cc1 ?
Given back: > 100 µM (inactive)

Next:
Asked: Reported GI50 for O=C(O)CSCC(=O)Nc1ccc2cccc3c2c1CC3 : what is it?
Given back: > 100 µM (inactive)

###

Tested on: HT-29
Experiment: NCI tumour cell line growth inhibition, 48 h
Active and inactive are the calls of the source. Cut-off read from the data, not from the text of the source: active = GI50 up to about 1.1 µM and inactive = higher.
MEASURE: GI50

Some solved cases for reference:
Asked: Reported GI50 for O=c1c2cc(Br)ccc2n(C2OC(CO)C(O)C(O)C2O)c(=S)n1-c1ccccc1 (stereo not given) : what is it?
Given back: > 100 µM (inactive)

Asked: Would you kindly repeat that for C/C(=N\NC(=S)NC(C)C)c1nc2cccnc2[nH]1 ?
Given back: 12.8 µM (inactive)

Asked: Would you kindly repeat that for Nc1nc(SCc2ccc([N+](=O)[O-])cc2)nc2c1ncn2C1OC(COP(=O)(O)O)C(O)C1O (stereo not given) ?
Given back: > 100 µM (inactive)

Next:
Asked: Reported GI50 for COC1/C=C\OC2(C)Oc3c(C)c(O)c4c(O)c(c(CN(C)C)c(O)c4c3C2=O)NC(=O)/C(C)=C\C=C/C(C)C(O)C(C)C(O)C(C)C(OC(C)=O)C1C (stereo not given) : what is it?
Given back: 20.6 µM (inactive)

Asked: Would you kindly repeat that for COc1ccc2c(C(=O)c3c(C)n(CCN4CCOCC4)c4ccccc34)cccc2c1 ?
Given back: 21 µM (inactive)

Asked: Would you kindly repeat that for CCCc1c2c([nH]c(=O)c1C)C(=O)c1[nH]c(=O)c(C)c(CCC)c1C2=O ?
Given back: 4.75 µM (inactive)

Asked: Would you kindly repeat that for CCOP(=O)(OCC)C(Nc1cccc([N+](=O)[O-])c1)c1ccccc1 (stereo not given) ?
Given back: 75 µM (inactive)

Asked: Would you kindly repeat that for O=c1[nH]c2cc(-c3ccccc3)nc-2nn1-c1c(Cl)cc(Cl)cc1Cl ?
Given back: 34.4 µM (inactive)

Asked: Would you kindly repeat that for COc1cc2c(cc1OC)-c1cc3cc(OC)c(OC)cc3n1CC2 ?
Given back: 16.6 µM (inactive)

Asked: Would you kindly repeat that for COCC1OC(Sc2ccccc2)C(O)C(OC)C1OC (stereo not given) ?
Given back: > 100 µM (inactive)
